The reported numbers originate from the NIST ThermoML archive (doi:10.1016/j.fluid.2014.11.010).

- EXPERIMENTAL_PARAMETERS: 313.15 K; Liquid; Closed cell (Static) method
PARAMETER: vapor or sublimation pressure (kPa)

Cc1ccccc1
7.876

[a] CCC(C)O (centres undefined)
[b] CCCCO
When their vapor or sublimation pressure values are compared, which is larger, a or b ? Indicate which entry you chose by stating its label. a
(a: 6.05 kPa, b: 2.506 kPa)
